- system: T1, recombinant human (rhu) PD1 (extracellular domain only) (human, UniProt Q15116 25-170)
- T1 construct: extracellular domain; also called recombinant human PD1
- T1 sequence (Q15116 25-170): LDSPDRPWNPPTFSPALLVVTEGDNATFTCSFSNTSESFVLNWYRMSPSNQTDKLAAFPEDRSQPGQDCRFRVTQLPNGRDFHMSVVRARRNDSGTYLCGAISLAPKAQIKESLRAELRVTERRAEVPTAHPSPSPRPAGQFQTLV
- method-description: SPR (Biacore 3000), antibody captured by anti-human IgG, PD1 as analyte
Below, each entry is listed with its recorded koff.
Just the number in s⁻¹, nothing appended.

Consider the following illustrative entries.
[
  {
    "binder": "anti-hPD1 antibody #1 (antibody, V domains shown, also called Anti-hPD1 #1; Anti-PD1 #1) VH: QVQLVQSGAEVKKPGASVKVSCKASGYTFTNYWIHWVRQAPGQGLEWMGEIDPYDSYTNYNQKFKGRVTMTVDKSTSTVYMELSSLRSEDTAVYYCARPGFTYGGMDFWGQGTLVTVSS VL: DIQMTQSPSSLSASVGDRVTITCKSSQSLFNSGNQKNYLAWYQQKPGKVPKLLIYGASTRDSGVPYRFSGSGSGTDFTLTISSLQPEDVATYYCQNDHYYPYTFGGGTKVEIKR",
    "endpoint-name": "koff",
    "observed-value": 0.000133
  },
  {
    "binder": "anti-hPD1 antibody #3 (antibody, human IgG4, V domains shown, also called Anti-hPD1 #3; Anti-PD1 #3) VH: QVQLVQSGAEVKKPGASVKVSCKASSYTFTNYWMHWVRQAPGQGLEWMGEIDPYDSYTNYNQKFKGRVTMTIDTSTSTVYMELSSLTSEDTAVYYCARPGFTYGGMDFWGQGTLVTVSS VL: DIQMTQSPSSLSASVGDRVTITCKSSQSLFNSGNQKNYLAWYQQKPGKVPKLLIYGASTRESGVPARFSGSGSGTDFTLTISSLQAEDVATYYCQNDHYYPYTFGGGTKVEIK",
    "endpoint-name": "koff",
    "observed-value": 0.000348
  },
  {
    "binder": "anti-hPD1 antibody #4 (antibody, human IgG4, V domains shown, also called Anti-hPD1 #4; Anti-PD1 #4) VH: QVQLVQSGAEVKKPGASVKVSCKASGYTFTNYWMHWVRQAPGQGLEWMGEIDPFDSYTNYNQKFKGRVTMTRDTSTSTVYMELSSLTSEDTAVYYCARPGYTYGGMDFWGQGTLVTVSS VL: DIQMTQSPSSLSASVGDRVTITCKSSQSLLNSGNQKNYLAWYQQKPGKPPKLLIYGASTRDSGVPSRFSGSGSGTDFTLTISSLQPEDVATYYCQNDHYYPYTFGGGTKVEIK",
    "endpoint-name": "koff",
    "observed-value": 0.000279
  }
]

# next binder below
## Task Give reported koff value for anti-hPD1 antibody #10 (antibody, human IgG4, V domains shown, also called Anti-hPD1 #10; Anti-PD1 #10) VH: QVQLVQSGAEVKKPGASVKVSCKASGYTFTSYWMHWVRQAPGQGLEWMGEIDPFDSYTNYNQKFKGRVTMTIDKSTNTVYMELSSLGSEDTAVYYCARPGYTYGGMDFWGQGTLVTVSS VL: DIVMTQSPDSLAVSLGERATINCRSSQSLFISGNQKNYLAWYQQKPGQPPKLLIYGASTRDSGVPDRFSGSGSGTDFTLTISSLQAEDVAVYYCQNNHYYPYTFGGGTKVEIK
## Result 7.15e-05
